subject_of_test: T1, human immunoglobulin E (hIgE) (human, UniProt P01854-1 1-428)
T1 construct: also called human IgE; Native IgE (Abcam)
measurement_protocol: SPR (Biacore), pH 6.0
pKd: −log10 of the molar value.

binder | pKd
OmaVH15G55H - VL3D28HS31H (antibody, V domains shown) VH: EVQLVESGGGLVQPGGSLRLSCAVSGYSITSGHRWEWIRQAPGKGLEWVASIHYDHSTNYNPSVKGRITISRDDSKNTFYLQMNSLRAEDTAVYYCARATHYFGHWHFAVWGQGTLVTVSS VL: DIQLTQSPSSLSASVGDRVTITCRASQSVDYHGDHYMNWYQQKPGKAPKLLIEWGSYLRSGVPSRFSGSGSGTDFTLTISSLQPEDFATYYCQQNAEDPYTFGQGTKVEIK | 7.79
OmaVH15G55H - VL3S31H (antibody, V domains shown) VH: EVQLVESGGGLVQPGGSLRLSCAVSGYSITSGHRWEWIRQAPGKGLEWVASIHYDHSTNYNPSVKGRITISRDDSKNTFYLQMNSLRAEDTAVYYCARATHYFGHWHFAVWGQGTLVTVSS VL: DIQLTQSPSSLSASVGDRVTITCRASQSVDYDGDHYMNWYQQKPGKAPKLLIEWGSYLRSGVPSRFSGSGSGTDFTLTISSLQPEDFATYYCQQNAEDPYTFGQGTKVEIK | 8.04
OMA VH15 - VL3D28HS31H (antibody, V domains shown) VH: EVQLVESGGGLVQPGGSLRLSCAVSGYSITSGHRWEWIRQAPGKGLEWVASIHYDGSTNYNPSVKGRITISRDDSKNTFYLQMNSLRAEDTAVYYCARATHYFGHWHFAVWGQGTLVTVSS VL: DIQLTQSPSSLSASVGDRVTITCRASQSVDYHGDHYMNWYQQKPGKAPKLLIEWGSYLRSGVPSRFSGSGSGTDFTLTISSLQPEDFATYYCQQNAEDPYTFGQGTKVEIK | 7.89
OmaVH15G55H - VL3 (antibody, V domains shown) VH: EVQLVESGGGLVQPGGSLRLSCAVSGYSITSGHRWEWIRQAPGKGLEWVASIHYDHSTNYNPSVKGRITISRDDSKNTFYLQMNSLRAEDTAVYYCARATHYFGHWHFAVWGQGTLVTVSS VL: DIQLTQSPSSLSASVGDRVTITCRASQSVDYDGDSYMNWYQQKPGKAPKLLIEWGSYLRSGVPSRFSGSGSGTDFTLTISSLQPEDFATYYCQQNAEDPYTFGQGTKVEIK | 8.74
OmaVH15G55HW100b - VL3 (antibody, V domains shown) VH: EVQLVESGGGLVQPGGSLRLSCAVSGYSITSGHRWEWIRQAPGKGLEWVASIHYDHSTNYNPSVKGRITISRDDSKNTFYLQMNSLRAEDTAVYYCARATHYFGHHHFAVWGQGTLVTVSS VL: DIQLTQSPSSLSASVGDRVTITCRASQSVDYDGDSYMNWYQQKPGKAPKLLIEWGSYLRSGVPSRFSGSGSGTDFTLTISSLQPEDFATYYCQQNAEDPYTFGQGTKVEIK | 6.83
